Assay: BSK_3C_uPAR: BioMAP Diversity Plus: 3C Assay for Urokinase-type plasminogen activator receptor (uPAR) Biomarker Activity (AID 2282998)
Settings: BioMAP 3C HUVEC, uPAR biomarker ELISA; actives raise or lower the signal
Activity calls are given as the source filed them. Rule for the calls: active = hit-call score of the fitted dose curve at least 0.9, where 1 is the maximum; inactive = score below 0.9.
Your answer must be one of the following: yes = active, no = inactive

>>> class_assignment("CCc1ccc(CCOc2ccc(CC3SC(=O)NC3=O)cc2)nc1 (centres undefined)")
"no"

What classification did "CC[C@H](c1ccc(O)cc1)[C@@H](CC)c1ccc(O)cc1" end up with in this test?
yes

What classification did CCc1nn(C2CCCCC2)c2cc(C3(C#N)CCC(C(=O)O)CC3)ccc12 (centres undefined) end up with in this test?
yes

What classification did "C#C[C@]1(O)CC[C@H]2[C@@H]3CCC4=CC(=O)CC[C@@H]4[C@H]3CC[C@@]21C" end up with in this test?
yes

What classification did "CCCCOCCO" end up with in this test?
no

What classification did "CCCCCCCCOC(=O)CCCCCCCCC(=O)OCCCCCCCC" end up with in this test?
no

What classification did "CCCCCCC(=O)O" end up with in this test?
no

What classification did "CCCCCCCCCCCCc1ccccc1S(=O)(=O)O" end up with in this test?
no

What classification did "C=C(C)C(=O)OCCC(F)(F)C(F)(F)C(F)(F)C(F)(F)C(F)(F)C(F)(F)F" end up with in this test?
no
